src = patent US20060257938A1

For each of the molecules below, state its DR/DR SA.
# assayOverview: Probe fluorescence ratio response to stearic acid relative to ADIFAB2
# Assay type: binding
# conditionContext: response relative to ADIFAB2

For the molecule 72S 73W 74N (protein, listed as Rattus norvegicus, PEPTIDE (1)...(131) wild-type rat intestinal fatty acid binding protein) AFDGTWKVDRNENYEKFMEKMGINVVKRKLGAHDNLKLTITQEGNKFTVKESSNFRNIDVVFELGVDFAYSSWNGTELTGTWTMEGNKLVGKFKRVDNGKELIAVREISGNELIQTYTYEGVEAKRIFKKE , what DR/DR SA is on record?
1.255

Param item = 72S 73L 74A (protein, listed as Rattus norvegicus, PEPTIDE (1)...(131) wild-type rat intestinal fatty acid binding protein) AFDGTWKVDRNENYEKFMEKMGINVVKRKLGAHDNLKLTITQEGNKFTVKESSNFRNIDVVFELGVDFAYSSLAGTELTGTWTMEGNKLVGKFKRVDNGKELIAVREISGNELIQTYTYEGVEAKRIFKKE ; retrieve measured DR/DR SA.
2.574

Fill in the blank: the reported DR/DR SA of 18G 31W 73V 72A (protein, listed as Rattus norvegicus, PEPTIDE (1)...(131) wild-type rat intestinal fatty acid binding protein) AFDGTWKVDRNENYEKFGEKMGINVVKRKLWAHDNLKLTITQEGNKFTVKESSNFRNIDVVFELGVDFAYSAVDGTELTGTWTMEGNKLVGKFKRVDNGKELIAVREISGNELIQTYTYEGVEAKRIFKKE is ____.
0.489
